Sourced from ChEMBL document CHEMBL1154179

Catalogue of compounds with associated EC50
# systemName: ATP-dependent translocase ABCB1 (Homo sapiens, UniProt P08183)
# Sequence (P08183 whole entry): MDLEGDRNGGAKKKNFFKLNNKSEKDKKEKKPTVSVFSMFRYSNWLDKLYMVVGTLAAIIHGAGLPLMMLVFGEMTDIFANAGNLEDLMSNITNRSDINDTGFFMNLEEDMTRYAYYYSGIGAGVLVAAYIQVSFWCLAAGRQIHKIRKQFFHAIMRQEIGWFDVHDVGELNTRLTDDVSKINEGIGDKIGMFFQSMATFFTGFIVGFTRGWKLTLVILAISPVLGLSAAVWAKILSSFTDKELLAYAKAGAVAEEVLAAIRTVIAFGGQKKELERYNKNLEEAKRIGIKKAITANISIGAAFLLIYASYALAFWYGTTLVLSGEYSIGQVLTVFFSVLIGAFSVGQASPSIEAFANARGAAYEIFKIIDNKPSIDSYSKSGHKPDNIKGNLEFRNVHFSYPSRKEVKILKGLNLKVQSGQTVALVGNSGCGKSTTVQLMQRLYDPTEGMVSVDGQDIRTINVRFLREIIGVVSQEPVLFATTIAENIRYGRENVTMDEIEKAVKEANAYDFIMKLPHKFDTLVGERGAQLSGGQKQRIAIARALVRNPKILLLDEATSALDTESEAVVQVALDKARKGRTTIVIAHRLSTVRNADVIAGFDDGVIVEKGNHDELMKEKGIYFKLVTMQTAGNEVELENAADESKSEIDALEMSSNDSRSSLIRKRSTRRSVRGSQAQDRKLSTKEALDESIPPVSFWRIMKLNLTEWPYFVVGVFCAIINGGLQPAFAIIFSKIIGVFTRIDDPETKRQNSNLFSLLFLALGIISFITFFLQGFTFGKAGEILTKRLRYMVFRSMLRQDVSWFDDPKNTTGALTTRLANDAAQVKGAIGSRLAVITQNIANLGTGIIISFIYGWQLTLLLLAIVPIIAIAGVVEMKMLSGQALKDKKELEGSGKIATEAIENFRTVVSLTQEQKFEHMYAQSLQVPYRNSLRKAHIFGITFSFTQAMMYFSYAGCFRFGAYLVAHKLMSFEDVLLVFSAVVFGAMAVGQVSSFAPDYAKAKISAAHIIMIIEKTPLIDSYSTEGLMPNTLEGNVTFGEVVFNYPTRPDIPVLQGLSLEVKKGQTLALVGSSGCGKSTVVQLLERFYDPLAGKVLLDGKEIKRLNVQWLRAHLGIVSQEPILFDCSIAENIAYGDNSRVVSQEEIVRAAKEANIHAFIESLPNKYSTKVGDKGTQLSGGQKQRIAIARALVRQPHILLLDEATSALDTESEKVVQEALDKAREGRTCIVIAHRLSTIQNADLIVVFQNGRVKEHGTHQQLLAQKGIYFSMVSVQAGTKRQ
# experimentalProtocol: Modulation of P-gp overexpressed in human A2780 cells assessed as daunorubicin accumulation preincubated 15 mins prior to daunorubicin addition measured after 180 mins by fluorescence assay
Give the number; nM is assumed, so skip it.

// solved cases for EC50 follow
                          smilesentry  readouttype  endpointvalue
0            CSc1nc(N)c2c(C)c(C)sc2n1         EC50           1310
1         CCOC(=O)CSc1nc(N)c2ccccc2n1         EC50           3980
2    CCOC(=O)CSc1nc(N)c2c(C)c(C)sc2n1         EC50            900
3        Nc1nc(SCCO)nc2sc3c(c12)CCCC3         EC50           1920
4  CCOC(=O)CSc1nc(N)c2c3c(sc2n1)COCC3         EC50           1550

**Q:** For "CCSc1nc(N)c2c(C)c(C)sc2n1" , what is its reported EC50?
**A:** 4590

**Q:** For "CCOC(=O)CSc1nc(N)c2c3c(sc2n1)CN(Cc1ccccc1)CC3" , what is its reported EC50?
**A:** 640

**Q:** For "Cc1sc2nc(SCC(=O)c3ccccc3)nc(N)c2c1C" , what is its reported EC50?
**A:** 1310

**Q:** For "Nc1nc(SCCc2ccccc2)nc2ccccc12" , what is its reported EC50?
**A:** 1100

**Q:** For "CCOC(=O)CSc1nc(N)c2cc(OC)c(OC)cc2n1" , what is its reported EC50?
**A:** 1210
